# TEST NAME: Cytotoxic concentration against human cervix carcinoma cells
RECORDED ENDPOINT: CC50

Example cases with answers are listed next.
CCN(CC)C(=S)SCc1cc(O)n2nc(N)c([N+](=O)[O-])c2n1    > 50 µg/mL
NC(=S)NNCc1cc(O)n2nc(N)c([N+](=O)[O-])c2n1    > 50 µg/mL
Nc1nn2c(O)cc(CN3CCN(CCO)CC3)nc2c1[N+](=O)[O-]    > 50 µg/mL
Nc1nn2c(O)cc(CN3CCN(C(c4ccccc4)c4ccccc4)CC3)nc2c1[N+](=O)[O-]    14.8 µg/mL

For reference, reported CC50 for Nc1nn2c(O)cc(-c3ccc(F)cc3)nc2c1[N+](=O)[O-] stands at > 100 µg/mL

* * *

Answer each item with its documented CC50.
# TEST NAME: Cytotoxic concentration against human cervix carcinoma cells

Nc1nn2c(O)cc(CNNc3ccc(F)cc3)nc2c1[N+](=O)[O-]    > 100 µg/mL
CCN(CC)C(=O)N1CCN(Cc2cc(O)n3nc(N)c([N+](=O)[O-])c3n2)CC1    > 50 µg/mL
Nc1nn2c(O)cc(-c3ccccc3F)nc2c1[N+](=O)[O-]    66.5 µg/mL
Nc1nn2c(O)cc(CCl)nc2c1[N+](=O)[O-]    > 50 µg/mL

Please give CC50, item by item, for the list that follows.
1. COc1ccc(NNCc2cc(O)n3nc(N)c([N+](=O)[O-])c3n2)cc1
2. Nc1nn2c(O)cc(-c3ccccc3)nc2c1[N+](=O)[O-]

[A]
66.3 µg/mL
> 100 µg/mL

* * *

# TEST NAME: Cytotoxic concentration against human cervix carcinoma cells
RECORDED ENDPOINT: CC50

NC(=NCc1cc(O)n2nc(N)c([N+](=O)[O-])c2n1)SCc1ccccc1    > 50 µg/mL
Nc1nn2c(O)cc(CNNc3ccc(S(=O)(=O)O)cc3)nc2c1[N+](=O)[O-]    > 50 µg/mL

For reference, reported CC50 for Nc1nn2c(O)cc(CNNCCO)nc2c1[N+](=O)[O-] stands at > 50 µg/mL
